# credit: ChEMBL document CHEMBL5126505

Molecular target: Adenosine receptor A2b (Homo sapiens, UniProt P29275)
Sequence (P29275 whole entry): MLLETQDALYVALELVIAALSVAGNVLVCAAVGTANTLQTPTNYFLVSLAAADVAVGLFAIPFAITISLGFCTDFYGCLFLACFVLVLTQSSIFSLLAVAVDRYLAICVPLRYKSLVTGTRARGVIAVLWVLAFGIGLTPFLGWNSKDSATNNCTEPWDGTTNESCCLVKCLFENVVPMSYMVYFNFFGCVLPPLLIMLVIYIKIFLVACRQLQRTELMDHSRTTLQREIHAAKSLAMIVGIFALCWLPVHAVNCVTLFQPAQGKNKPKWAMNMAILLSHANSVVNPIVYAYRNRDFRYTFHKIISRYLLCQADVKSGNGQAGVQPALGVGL
pKi: −log10 of the molar value.
endpoint: pKi

I = CCCn1c(=O)c2[nH]c(-c3cnn(CC#Cc4cccc(OC(F)(F)F)c4)c3)nc2n(CCC)c1=O
II = CC1=C(C(=O)OC(C)C(F)(F)F)C(c2ccco2)n2c(nc3ccccc32)N1 (configuration not stated)
Given the two records I and II , choose the one whose pKi value is lower. Identify your selection by its label. II

----------
Target: UniProtKB P29274
Test: Antagonist activity at human adenosine A2A receptor expressed in CHO cells assessed as inhibition of NECA-induced cAMP production
Assay type: functional, cell-based
endpoint: IC50

cpd.smiles: COc1ccc(-c2cn3c(=O)n(-c4ccc([N+](=O)[O-])cc4)nc3c(N)n2)cc1
readout.value: > 30 µM

Continue with the compound presented below.
Find the measured IC50 of `CCOc1ccc(-c2cn3c(=O)n(-c4ccccc4)nc3c(N)n2)cc1` and report it. > 30 µM

----------
Molecular target: Adenosine receptor A1 (Homo sapiens)
Sequence (P30542 whole entry): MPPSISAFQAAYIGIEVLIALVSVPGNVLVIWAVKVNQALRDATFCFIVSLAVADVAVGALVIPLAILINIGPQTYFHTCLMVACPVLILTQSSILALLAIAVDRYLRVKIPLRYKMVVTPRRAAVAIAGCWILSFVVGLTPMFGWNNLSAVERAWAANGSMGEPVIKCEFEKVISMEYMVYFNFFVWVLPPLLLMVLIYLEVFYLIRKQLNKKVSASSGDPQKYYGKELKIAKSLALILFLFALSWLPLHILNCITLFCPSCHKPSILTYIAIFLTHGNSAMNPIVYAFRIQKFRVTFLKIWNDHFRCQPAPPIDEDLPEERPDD
Assay: biochemical
Description: Binding affinity to human adenosine A1A receptor expressed in CHO cells measured by radioligand binding assay
pKi: −log10 of the molar value.
endpoint: pKi

A = CCn1c(-c2ccco2)nc2c(N)cc(OCCc3ccccc3)cc21
B = O=c1[nH]c(=O)c2c(C(F)(F)F)cc(-c3ccccc3)nc2[nH]1
Parameter check: reported pKi is higher for which label, A or B ? Identify your selection by its label. A
(A: 8.66, B: 6.77)

A = N=c1nc(N)c2c(C(F)(F)F)cc(-c3ccccc3)nc2[nH]1
B = CCn1c(-c2ccco2)nc2c(N)cc(NCCc3ccccc3)cc21
Given the two records A and B , choose the one whose pKi value is lower. Identify your selection by its label. A
(A: 6.21, B: 8.42)

----------
Target: Adenosine receptor A1 (Homo sapiens)
endpoint: IC50 (µM)
Value expressed in µM; do not type the unit.

// output IC50; input `Cc1ccc(C(=O)Nc2c(CC(=O)NC3CCCC3)[nH]c3ccccc23)cc1` ; system Adenosine receptor A1 (Homo sapiens) 3.09

----------
Target: Adenosine receptor A2a (Homo sapiens, UniProt P29274)
Sequence (P29274 whole entry): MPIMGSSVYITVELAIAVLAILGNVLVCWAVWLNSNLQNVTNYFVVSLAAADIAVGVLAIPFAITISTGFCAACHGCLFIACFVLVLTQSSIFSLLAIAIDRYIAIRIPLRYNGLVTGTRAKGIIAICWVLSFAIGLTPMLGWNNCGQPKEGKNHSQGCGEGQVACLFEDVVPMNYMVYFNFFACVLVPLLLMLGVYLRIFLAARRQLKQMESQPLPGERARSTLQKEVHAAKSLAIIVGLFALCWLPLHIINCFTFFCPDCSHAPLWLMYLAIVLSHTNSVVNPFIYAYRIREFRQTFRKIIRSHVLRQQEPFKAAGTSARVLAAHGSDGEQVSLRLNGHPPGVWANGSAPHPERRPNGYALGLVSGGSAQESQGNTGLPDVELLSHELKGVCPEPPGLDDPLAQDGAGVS
endpoint: IC50 (nM)
Value expressed in nM; do not type the unit.

Find the measured IC50 of CCN1CCCC(Nc2cc(C)nc(NC(=N)Nc3ccc(Cl)c(Cl)c3)n2)C1 (stereo unspecified) and report it. 546

----------
Biological target: Adenosine receptor A3 (Homo sapiens)
Sequence (P0DMS8 whole entry): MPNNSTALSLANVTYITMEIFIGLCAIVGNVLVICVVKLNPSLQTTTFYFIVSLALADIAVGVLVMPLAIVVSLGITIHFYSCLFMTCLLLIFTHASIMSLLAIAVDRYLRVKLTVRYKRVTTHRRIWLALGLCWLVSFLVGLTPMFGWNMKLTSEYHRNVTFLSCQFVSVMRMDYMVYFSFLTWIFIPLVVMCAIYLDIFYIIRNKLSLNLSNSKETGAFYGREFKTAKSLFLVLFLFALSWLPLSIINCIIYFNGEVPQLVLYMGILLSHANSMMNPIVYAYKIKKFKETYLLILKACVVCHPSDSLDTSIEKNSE
endpoint: Ki (nM)
Value expressed in nM; do not type the unit.

// output Ki; input CCn1nnc([C@H]2O[C@@H](n3cnc4c(N)nc(NC(C)Cc5ccc(OC)cc5)nc43)[C@H](O)[C@@H]2O)n1 (stereo partly specified) ; system Adenosine receptor A3 (Homo sapiens) 6
